Origin of the recorded values: paper PMC4038554

# relative binding ratio (IC50 of the test peptide divided by IC50 of the reference peptide) per record follows
TARGET DESC: DRB1*1301 (Homo sapiens, UniProt P01903+P01911, A100E/A169T/K41T/L162R/M171V/P40S/Q125H/Q178H/Q39Y/Q99D/R42S/S66N/T262R/W38E/Y61H)
TEST PROTOCOL: HLA class II peptide-binding assay (competitive ELISA)
CONDITIONS: immunopurified HLA, reference peptide IC50 208 nM, ratio ≤20 high affinity, 20–200 moderate affinity
REPORTED ENDPOINT: relative binding ratio (IC50 of the test peptide divided by IC50 of the reference peptide)

INSERT INTO results (sequence_text, result) VALUES
  ('PGKYTADGGKHVAYII [pTL4, Tear lipocalin peptide p74–89]', '> 481'),
  ('ALEDFEKAAGARGLST [pTL8, Tear lipocalin peptide p126–141]', '> 481'),
  ('EILELAQSETCSPGGQ [pC9, Can f 1 peptide p141–156]', '> 481');
